B1: LINE1-full (parent)
chain: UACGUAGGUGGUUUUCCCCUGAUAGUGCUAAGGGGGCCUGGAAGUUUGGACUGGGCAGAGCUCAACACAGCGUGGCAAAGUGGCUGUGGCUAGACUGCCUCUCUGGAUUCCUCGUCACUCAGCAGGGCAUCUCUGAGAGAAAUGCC

Variants of: B1
method-description: self-cleavage, relative activity (ratio to wild type); higher = more cleavage; in vitro, sequencing; the parent is a self-cleaving ribozyme
Could you label it T if measured self-cleavage is 0.8 or higher, and F otherwise?

- G48A G144U: T
- A43U U108A: T
- U52A G75U: F
- A64C U104A: F
- U46A C68U: F
- U119A G122C: T
- U9A A124U: T
- C101A A129U: T
- U102C U134C: T
- A31G A59C: T
- U26A G80U: T
- U73G A141G: T
- U45G G106C: T
- G11C G48U: T
- U23A U87A: F
- U45A U47C: T
- U73C U112G: T
- G54U U96C: F
- U115C A142G: T
- A67G U119C: T
- U73A U119A: T
- G72A A141U: T
- A77G U96C: F
- G7U G54C: F
- U20A U112A: T
- C19U A57G: T
- A64G U87G: F
- U62A U108C: F
- C68U A117G: F
- A30G U119C: T
- U9A G70C: F
- U12G U81C: T
- G34U U47G: T
- A77G U81A: T
- A6G G40A: T
- A30G A65G: F
- U9C U46C: T
- U13G A67U: F
- G70U A121G: F
- A59U U87A: F
- A6G U47A: T
- G88A G97A: F
- U26A C120A: T
- U13C G25U: T
- U46G G72A: T
